All values here come from paper PMC6566410.

# System: OVCAR-3
# assay_text: NCI one-dose SRB assay
# Type: cell-based
# experimental_parameters: Homo sapiens, OVCAR-3 (Ovarian Cancer), 1.00E-5 Molar, read-out: Growth Percent
Quick reference for activity at 10 µM among some molecules
A complete answer gives the number and then names the unit.

As a guide, the following entries are already answered.
[
  {
    "smiles_entry": "Cc1ccc(C=C(NC(=O)c2ccccc2)C(=O)Nc2ccc(S(N)(=O)=O)cc2)o1",
    "activity at 10 µM": "108%"
  },
  {
    "smiles_entry": "NS(=O)(=O)c1ccc(NC(=O)C(=Cc2ccc(Br)cc2)NC(=O)c2ccccc2)cc1",
    "activity at 10 µM": "103%"
  },
  {
    "smiles_entry": "NS(=O)(=O)c1ccc(NC(=O)C(=Cc2ccc(Cl)cc2Cl)NC(=O)c2ccccc2)cc1",
    "activity at 10 µM": "113%"
  }
]

Next up:
Input: GET /values?readout=activity at 10 µM&item= Cc1ccc(C=C(NC(=O)c2ccccc2)C(=O)Nc2ccc(S(N)(=O)=O)cc2)cc1
Output: 111%

* * *

# subject_of_test: hCA XII (Homo sapiens)
# Sequence (O43570 25-354): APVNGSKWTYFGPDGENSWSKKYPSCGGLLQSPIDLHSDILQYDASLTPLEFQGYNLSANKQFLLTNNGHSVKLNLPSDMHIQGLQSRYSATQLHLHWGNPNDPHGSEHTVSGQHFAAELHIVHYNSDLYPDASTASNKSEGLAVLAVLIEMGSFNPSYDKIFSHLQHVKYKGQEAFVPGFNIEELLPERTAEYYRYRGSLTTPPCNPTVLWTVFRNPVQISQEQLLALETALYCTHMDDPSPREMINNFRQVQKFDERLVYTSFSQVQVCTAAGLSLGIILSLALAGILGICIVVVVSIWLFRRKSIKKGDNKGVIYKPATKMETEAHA
# assay_text: stopped-flow CO2 hydrase assay
# experimental_parameters: KI hCA II / KI hCA XII
Quick reference for Selectivity ratio II/XII among some molecules
The reply should be a number, written without any unit.

As a guide, the following entries are already answered.
[
  {
    "molecule": "COc1ccc(C=C(NC(=O)c2ccccc2)C(=O)Nc2ccc(S(N)(=O)=O)cc2)cc1OC [Compound 5g]",
    "subject_of_test": "hCA XII (Homo sapiens)",
    "assay_result": 45.7
  },
  {
    "molecule": "NS(=O)(=O)c1ccc(NC(=O)C(=Cc2ccc(Cl)cc2Cl)NC(=O)c2ccccc2)cc1 [Compound 5b]",
    "subject_of_test": "hCA XII (Homo sapiens)",
    "assay_result": 21.3
  },
  {
    "molecule": "Cc1ccc(C=C(NC(=O)c2ccccc2)C(=O)Nc2ccc(S(N)(=O)=O)cc2)o1 [Compound 5h]",
    "subject_of_test": "hCA XII (Homo sapiens)",
    "assay_result": 2
  },
  {
    "molecule": "NS(=O)(=O)c1ccc(NC(=O)C(=Cc2ccc(Br)cc2)NC(=O)c2ccccc2)cc1 [Compound 5c]",
    "subject_of_test": "hCA XII (Homo sapiens)",
    "assay_result": 4.5
  }
]

Input: Missing value: Selectivity ratio II/XII, hCA XII (Homo sapiens), entry COc1ccc(C=C(NC(=O)c2ccccc2)C(=O)Nc2ccc(S(N)(=O)=O)cc2)c(OC)c1 [Compound 5f] . Fill in?
Output: 2.2

Input: Same again, this time with NS(=O)(=O)c1ccc(NC(=O)C(=Cc2ccc(Cl)cc2)NC(=O)c2ccccc2)cc1 [Compound 5a]
Output: 4.2

Input: Same again, this time with COc1ccc(C=C(NC(=O)c2ccccc2)C(=O)Nc2ccc(S(N)(=O)=O)cc2)cc1 [Compound 5e]
Output: 3

* * *

Quick reference for melting point among some compounds

[
  {
    "smiles_entry": "NS(=O)(=O)c1ccc(NC(=O)C(=Cc2ccc(Cl)cc2)NC(=O)c2ccccc2)cc1",
    "melting point": "255 to 258 °C"
  },
  {
    "smiles_entry": "NS(=O)(=O)c1ccc(NC(=O)C(=Cc2ccc(Br)cc2)NC(=O)c2ccccc2)cc1",
    "melting point": "210 to 212 °C"
  }
]

Input: GET /values?readout=melting point&item= COc1ccc(C=C(NC(=O)c2ccccc2)C(=O)Nc2ccc(S(N)(=O)=O)cc2)c(OC)c1
Output: 245 to 250 °C
